- Tested on: YEL007W
- test summary: TOR pathway GFP reporter clone modulation in yeast – S. cerevisiae, GFP-tagged clone panel, flow cytometry (AID 504473);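 note: median GFP fluorescence of the cells measured by high-throughput flow cytometry; test concentration not given here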
- condition parameters: S. cerevisiae GFP-tagged strains, 3 h
assay readout: GFP ratio to DMSO
Give the value as a plain number.

Below, 4 compounds whose answers are already recorded.
[
  {
    "smiles string": "CO[C@H]1C[C@@H]2CC[C@@H](C)[C@@](O)(O2)C(=O)C(=O)N2CCCC[C@H]2C(=O)O[C@H]([C@H](C)C[C@@H]2CC[C@@H](O)[C@H](OC)C2)CC(=O)[C@H](C)/C=C(\\C)[C@@H](O)[C@@H](OC)C(=O)[C@H](C)C[C@H](C)/C=C/C=C/C=C/1C",
    "target system": "YEL007W",
    "GFP ratio to DMSO": 1.05
  },
  {
    "smiles string": "CNc1nc(N)c([N+](=O)[O-])c(Nc2ccccc2OC)n1",
    "target system": "YEL007W",
    "GFP ratio to DMSO": 0.721
  },
  {
    "smiles string": "CNc1nc(N)c([N+](=O)[O-])c(Nc2cccc(F)c2)n1",
    "target system": "YEL007W",
    "GFP ratio to DMSO": 0.993
  },
  {
    "smiles string": "CNc1nc(N)c([N+](=O)[O-])c(Nc2cccc(Cl)c2)n1",
    "target system": "YEL007W",
    "GFP ratio to DMSO": 0.89
  }
]

What the record says about `CNc1nc(N)c([N+](=O)[O-])c(Nc2ccccc2)n1` : GFP ratio to DMSO is 0.874
